B1: tRNA (parent)
chain: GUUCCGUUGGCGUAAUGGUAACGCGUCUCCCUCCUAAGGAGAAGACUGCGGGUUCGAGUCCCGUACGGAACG

# Variants of: B1
# assay: yeast fitness relative to wild type (ratio to wild type); higher = fitter; tRNA-Arg(CCU), competitive growth, 37 C, YPD
This sample holds only a part of the variants without activity.
Kindly state yeast fitness for each of the entries shown.

Recorded results for 3 variants are shown here.
>  <mutant>
U8A G18C G25C A57U C60U C61A

>  <yeast fitness>
≤ 0.5

$$$$
>  <mutant>
U2G U3C C55U C61A

>  <yeast fitness>
≤ 0.5

$$$$
>  <mutant>
C29A C33U U47A A57U

>  <yeast fitness>
≤ 0.5

$$$$

For every item in the list below, what is its measured yeast fitness?
1. C11A U19A C29A U32A G44U G58A
2. C11U C30U C34G G68C
3. C22U A37G A45U G52A U54C
4. C11G U47A G68C
5. C11G A20C C24G G58A G67C
6. U2A C5A C66U

Return:
≤ 0.5
≤ 0.5
≤ 0.5
≤ 0.5
≤ 0.5
≤ 0.5

For every item in the list below, what is its measured yeast fitness?
1. C5G C22A G25A A37U
2. C46G G56A A57C C61U
3. C5G U16C C24U

Return:
[0.596, 0.575, "≤ 0.5"]

For every item in the list below, what is its measured yeast fitness?
1. C33U C49G G52C
2. C4G U8G G9A C11U

Return:
1. 0.501
2. 0.562
